B1: CPEB3 Ribozyme (parent)
chain: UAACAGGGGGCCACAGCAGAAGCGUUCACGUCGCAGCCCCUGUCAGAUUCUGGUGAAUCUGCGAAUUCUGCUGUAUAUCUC

# Variants of: B1
# Assay Name: self-cleavage, relative activity (ratio to wild type); higher = more cleavage; in vitro, sequencing
Below: a set of entries, each annotated with reported self-cleavage.
Please state the value as a number alone, without comment.

Which self-cleavage value is on record for A28U C37U ? 0.41

Which self-cleavage value is on record for C37G C44A ? 0.39

Item U26A U43A has what recorded self-cleavage? 0.39

// provenance: the RNAGym collection of RNA variant scans (doi:10.1093/nar/gkz1192)
